System: Staphylococcus aureus
Assay: Antibacterial activity against clinical isolates of methicillin-sensitive Staphylococcus aureus assessed as reduction in bacterial cell growth by CLSI protocol based broth microdilution method
Type: functional
measuredProperty: MIC

[[record]]
smilesentry = "CC(=O)NC[C@H]1CN(c2ccc(-c3ccc(/C=N/N4CCSCC4)c(O)c3)c(F)c2)C(=O)O1"
measuredproperty = "MIC"
endpointvalue = "0.125 to 0.25 µg/mL"

[[record]]
smilesentry = "CC(=O)NC[C@H]1CN(c2ccc(-c3ccc(/C=N/N4CCS(=O)(=O)CC4)c(O)c3)c(F)c2)C(=O)O1"
measuredproperty = "MIC"
endpointvalue = "1 to 2 µg/mL"

[[record]]
smilesentry = "CC(=O)NC[C@H]1CN(c2ccc(N3CCOCC3)c(F)c2)C(=O)O1"
measuredproperty = "MIC"
endpointvalue = "1 to 4 µg/mL"

[[record]]
smilesentry = "CC(=O)NC[C@H]1CN(c2ccc(-c3ccc(/C=N/N4CCOCC4)nc3)c(F)c2)C(=O)O1"
measuredproperty = "MIC"
endpointvalue = "0.25 to 0.5 µg/mL"

[[record]]
smilesentry = "CC(=O)NC[C@H]1CN(c2ccc(-c3ccc(/C=N/N4CCS(=O)(=O)CC4)nc3)c(F)c2)C(=O)O1"
measuredproperty = "MIC"
endpointvalue = "0.25 to 0.5 µg/mL"

[[record]]
smilesentry = "CC(=O)NC[C@H]1CN(c2ccc(-c3ccc(/C=N/N4CCN(C)CC4)nc3)c(F)c2)C(=O)O1"
measuredproperty = "MIC"
endpointvalue = "2 µg/mL"

[[record]]
smilesentry = "CC(=O)NC[C@H]1CN(c2ccc(-c3ccc(/C=N/N4CC[S+]([O-])CC4)c(O)c3)c(F)c2)C(=O)O1"
measuredproperty = "MIC"
endpointvalue = "0.5 µg/mL"

[[record]]
smilesentry = "CCC(=O)N1CCN(/N=C/c2ccc(-c3ccc(N4C[C@H](CNC(C)=O)OC4=O)cc3F)cc2O)CC1"
measuredproperty = "MIC"
endpointvalue = "1 to 2 µg/mL"

[[record]]
smilesentry = "CC(=O)NC[C@H]1CN(c2ccc(-c3ccc(/C=N/N4CCSCC4)nc3)c(F)c2)C(=O)O1"
measuredproperty = "MIC"
endpointvalue = "0.25 to 0.5 µg/mL"

[[record]]
smilesentry = "CC(=O)NC[C@H]1CN(c2ccc(-c3ccc(/C=N/N4CCN(C)CC4)c(O)c3)c(F)c2)C(=O)O1"
measuredproperty = "MIC"
endpointvalue = "0.5 to 1 µg/mL"

[[record]]
smilesentry = "COC(=O)N1CCN(/N=C/c2ccc(-c3ccc(N4C[C@H](CNC(C)=O)OC4=O)cc3F)cc2O)CC1"
measuredproperty = "MIC"
endpointvalue = "2 µg/mL"


###

Test: Metabolic stability in rat assessed as half life measured after intragastric administration
Format: ADME
Conditions: in vivo, po
measuredProperty: half-life

[[record]]
smilesentry = "CC(=O)NC[C@H]1CN(c2ccc(-c3ccc(/C=N/N4CCN(C)CC4)cc3)c(F)c2)C(=O)O1"
endpointvalue = "2.7 h"


###

Item-by-item account of MIC
Tested on: Staphylococcus aureus
Assay: Antibacterial activity against methicillin-sensitive Staphylococcus aureus assessed as complete reduction in bacterial cell growth by CLSI protocol based broth liquid microdilution method
Assay type: functional
measuredProperty: MIC (µg/mL)

[[record]]
smilesentry = "CC(=O)NC[C@H]1CN(c2ccc(-c3ccc(/C=N/N4CCCCC4)c(F)c3)c(F)c2)C(=O)O1"
endpointvalue = 0.25

[[record]]
smilesentry = "CC(=O)NC[C@H]1CN(c2ccc(-c3ccc(/C=N/N4CC[S+]([O-])CC4)c(O)c3)c(F)c2)C(=O)O1"
endpointvalue = 0.25

[[record]]
smilesentry = "CC(=O)NC[C@H]1CN(c2ccc(-c3ccc(/C=N/N4CCN(C)CC4)c(F)c3)c(F)c2)C(=O)O1"
endpointvalue = 1

[[record]]
smilesentry = "CCC(=O)N1CCN(/N=C/c2ccc(-c3ccc(N4C[C@H](CNC(C)=O)OC4=O)cc3F)cn2)CC1"
endpointvalue = 1

[[record]]
smilesentry = "CC(=O)NC[C@H]1CN(c2ccc(-c3ccc(/C=N/N4CCN(C)CC4)c(C(F)(F)F)c3)c(F)c2)C(=O)O1"
endpointvalue = 2

[[record]]
smilesentry = "CC(=O)NC[C@H]1CN(c2ccc(-c3ccc(/C=N/N4CCN(C(=O)c5ccccc5)CC4)nc3)c(F)c2)C(=O)O1"
endpointvalue = 2

[[record]]
smilesentry = "CC(=O)NC[C@H]1CN(c2ccc(-c3ccc(/C=N/N4CCS(=O)(=O)CC4)nc3)c(F)c2)C(=O)O1"
endpointvalue = 0.125

[[record]]
smilesentry = "CC(=O)NC[C@H]1CN(c2ccc(-c3ccc(/C=N/N4CCNCC4)cn3)c(F)c2)C(=O)O1"
endpointvalue = 2


###

Assay: Stability in human liver microsomes assessed as half life at 1.5 uM preincubated for 5 mins with NADPH and measured after 45 mins by LC/MS analysis
Type: ADME, Microsome
Details: liver microsomes
Item-by-item account of half-life at 1.5 µM
measuredProperty: half-life at 1.5 µM (h)

[[record]]
smilesentry = "CC(=O)NC[C@H]1CN(c2ccc(-c3ccc(/C=N/N4CCS(=O)(=O)CC4)nc3)c(F)c2)C(=O)O1"
measuredproperty = "half-life at 1.5 µM"
endpointvalue = 6.82

[[record]]
smilesentry = "CC(=O)NC[C@H]1CN(c2ccc(-c3ccc(/C=N/N4CCN(C)CC4)nc3)c(F)c2)C(=O)O1"
measuredproperty = "half-life at 1.5 µM"
endpointvalue = 1.68


###

Item-by-item account of MIC
System: Staphylococcus aureus
Test: Antibacterial activity against Staphylococcus aureus ATCC 29213 assessed as complete reduction in bacterial cell growth by CLSI protocol based broth liquid microdilution method
Format: functional
measuredProperty: MIC

[[record]]
smilesentry = "CC(=O)NC[C@H]1CN(c2ccc(-c3ccc(/C=N/N4CCNCC4)c(C)c3)c(F)c2)C(=O)O1"
experimentalsystem = "Staphylococcus aureus"
measuredproperty = "MIC"
endpointvalue = "0.5 µg/mL"

[[record]]
smilesentry = "CC(=O)NC[C@H]1CN(c2ccc(-c3ccc(/C=N/N4CCSCC4)c(C(F)(F)F)c3)c(F)c2)C(=O)O1"
experimentalsystem = "Staphylococcus aureus"
measuredproperty = "MIC"
endpointvalue = "2 µg/mL"

[[record]]
smilesentry = "COc1cc(-c2ccc(N3C[C@H](CNC(C)=O)OC3=O)cc2F)ccc1/C=N/N1CCSCC1"
experimentalsystem = "Staphylococcus aureus"
measuredproperty = "MIC"
endpointvalue = "2 µg/mL"

[[record]]
smilesentry = "CC(=O)NC[C@H]1CN(c2ccc(-c3ccc(/C=N/N4CCSCC4)nc3)c(F)c2)C(=O)O1"
experimentalsystem = "Staphylococcus aureus"
measuredproperty = "MIC"
endpointvalue = "0.125 µg/mL"

[[record]]
smilesentry = "CC(=O)NC[C@H]1CN(c2ccc(-c3ccc(/C=N/N4CCSCC4)c(O)c3)c(F)c2)C(=O)O1"
experimentalsystem = "Staphylococcus aureus"
measuredproperty = "MIC"
endpointvalue = "0.125 µg/mL"

[[record]]
smilesentry = "CC(=O)NC[C@H]1CN(c2ccc(-c3ccc(/C=N/N4CCN(C)CC4)c(O)c3)c(F)c2)C(=O)O1"
experimentalsystem = "Staphylococcus aureus"
measuredproperty = "MIC"
endpointvalue = "0.125 µg/mL"


###

System: Enterococcus faecium
Assay: Antibacterial activity against vancomycin-resistant Enterococcus faecium assessed as complete reduction in bacterial cell growth by CLSI protocol based broth liquid microdilution method
Type: functional
measuredProperty: log10 of MIC (log10 of the value in µg/mL)

[[record]]
smilesentry = "CC(=O)NC[C@H]1CN(c2ccc(-c3ccc(/C=N/N4CCNCC4)c(O)c3)c(F)c2)C(=O)O1"
endpointvalue = -0.60

[[record]]
smilesentry = "CC(=O)NC[C@H]1CN(c2ccc(-c3ccc(/C=N/N4CCNCC4)cn3)c(F)c2)C(=O)O1"
endpointvalue = 0.30

[[record]]
smilesentry = "CC(=O)NC[C@H]1CN(c2ccc(-c3ccc(/C=N/N4CCN(C)CC4)c(C)c3)c(F)c2)C(=O)O1"
endpointvalue = -0.30

[[record]]
smilesentry = "COC(=O)N1CCN(/N=C/c2ccc(-c3ccc(N4C[C@H](CNC(C)=O)OC4=O)cc3F)cc2O)CC1"
endpointvalue = -0.30

[[record]]
smilesentry = "CC(=O)NC[C@H]1CN(c2ccc(-c3ccc(/C=N/N4CCSCC4)nc3)c(F)c2)C(=O)O1"
endpointvalue = -0.60

[[record]]
smilesentry = "CC(=O)NC[C@H]1CN(c2ccc(-c3ccc(/C=N/N4CCS(=O)(=O)CC4)nc3)c(F)c2)C(=O)O1"
endpointvalue = -0.90

[[record]]
smilesentry = "CC(=O)NC[C@H]1CN(c2ccc(-c3ccc(/C=N/N4CCNCC4)c(F)c3)c(F)c2)C(=O)O1"
endpointvalue = -0.30

[[record]]
smilesentry = "CCC(=O)N1CCN(/N=C/c2ccc(-c3ccc(N4C[C@H](CNC(C)=O)OC4=O)cc3F)cc2O)CC1"
endpointvalue = -0.60

[[record]]
smilesentry = "CC(=O)NC[C@H]1CN(c2ccc(-c3ccc(/C=N/N4CCNCC4)nc3)c(F)c2)C(=O)O1"
endpointvalue = -0.30

[[record]]
smilesentry = "CCC(=O)N1CCN(/N=C/c2ccc(-c3ccc(N4C[C@H](CNC(C)=O)OC4=O)cc3F)cn2)CC1"
endpointvalue = -0.30

[[record]]
smilesentry = "CC(=O)NC[C@H]1CN(c2ccc(N3CCOCC3)c(F)c2)C(=O)O1"
endpointvalue = 0.30

[[record]]
smilesentry = "CC(=O)NC[C@H]1CN(c2ccc(-c3ccc(/C=N/N4CCOCC4)c(F)c3)c(F)c2)C(=O)O1"
endpointvalue = -0.60

[[record]]
smilesentry = "CC(=O)NC[C@H]1CN(c2ccc(-c3ccc(/C=N/N4CCN(C)CC4)c(O)c3)c(F)c2)C(=O)O1"
endpointvalue = -0.60

[[record]]
smilesentry = "COc1cc(-c2ccc(N3C[C@H](CNC(C)=O)OC3=O)cc2F)ccc1/C=N/N1CCSCC1"
endpointvalue = 0.00

[[record]]
smilesentry = "CC(=O)NC[C@H]1CN(c2ccc(-c3ccc(/C=N/N4CCSCC4)c(C)c3)c(F)c2)C(=O)O1"
endpointvalue = 0.00

[[record]]
smilesentry = "CC(=O)NC[C@H]1CN(c2ccc(-c3ccc(/C=N/N4CCCCC4)c(F)c3)c(F)c2)C(=O)O1"
endpointvalue = -0.30

[[record]]
smilesentry = "CC(=O)NC[C@H]1CN(c2ccc(-c3ccc(/C=N/N4CCN(C)CC4)cn3)c(F)c2)C(=O)O1"
endpointvalue = 0.30

